Consider the following compounds and their measured Vdss readings.
assay: Volume of distribution at steady state in CD-1 mouse at 1 mg/kg, iv administered as single dose measured up to 24 hrs; format: ADME, organism-based; details: in vivo

{"columns": ["structure", "endpoint unit", "Vdss"],
 "data": [
  ["CCn1nc2c(c1Nc1nc(-c3ccc(-n4cnc(C)c4)c(OC)n3)cs1)CCC2", "L/kg", 2.234],
  ["CCn1nc2c(c1Nc1nc(-c3ccc(-n4cnc(C)c4)c(OC)n3)cs1)CCCC2", "L/kg", 1.413],
  ["CCn1nc(C(F)(F)F)cc1Nc1nc(-c2ccc(-n3cnc(C)c3)c(OC)n2)cs1", "L/kg", 3.64],
  ["COc1nc(-c2csc(Nc3c4c(nn3CCF)CCCC4)n2)ccc1-n1cnc(C)c1", "L/kg", 2.826],
  ["COc1nc(-c2csc(Nc3c4c(nn3C)CCC4)n2)ccc1-n1cnc(C)c1", "L/kg", 3.18],
  ["CCn1nc(C2(C)CC2)cc1Nc1nc(-c2ccc(-n3cnc(C)c3)c(OC)n2)cs1", "L/kg", 3.609]
]}

====

assay: Metabolic stability in human liver microsomes assessed as parent compound remaining at 1 uM incubated for 30 mins; type: ADME, Microsome; conditions: microsomes, 0.5 h, 1 µM
Readings of Stabilty for the listed molecules

{"columns": ["structure", "Stabilty"],
 "data": [
  ["COc1nc(-c2csc(Nc3c4c(nn3C(C)(C)C)CCCC4)n2)ccc1-n1cnc(C)c1", "19%"],
  ["CCn1nc(C(F)(F)F)cc1Nc1nc(-c2ccc(-n3cnc(C)c3)c(OC)n2)cs1", "84%"],
  ["COc1cc(-c2csc(Nc3cc(C(C)(C)C)nn3C)n2)ccc1-n1cnc(C)c1", "60%"],
  ["COc1nc(-c2csc(Nc3c4c(nn3C3CCC3)CCCC4)n2)ccc1-n1cnc(C)c1", "9.5%"],
  ["COc1nc(-c2csc(Nc3c4c(nn3CCCN3CCOCC3)CCCC4)n2)ccc1-n1cnc(C)c1", "1.9%"],
  ["COc1nc(-c2csc(Nc3c4c(nn3C(C)C)CCCC4)n2)ccc1-n1cnc(C)c1", "10%"],
  ["COc1nc(-c2csc(Nc3c4c(nn3CCO)CCC4)n2)ccc1-n1cnc(C)c1", "42%"],
  ["COc1nc(-c2csc(Nc3c4c(nn3CCF)CCC4)n2)ccc1-n1cnc(C)c1", "58%"],
  ["COc1nc(-c2csc(Nc3c4c(nn3C)CCC4)n2)ccc1-n1cnc(C)c1", "76%"]
]}

====

experiment: Metabolic stability in rat liver microsomes assessed as parent compound remaining at 1 uM incubated for 30 mins; format: ADME, Microsome; conditions: 0.5 h
Catalogue of Stabilty readings, one per entry.

{"columns": ["compound", "Stabilty"],
 "data": [
  ["COc1nc(-c2csc(Nc3cc(C(C)(C)C)nn3CCF)n2)ccc1-n1cnc(C)c1", "86%"],
  ["COc1nc(-c2csc(Nc3cc(C(C)(C)C)nn3C(C)C)n2)ccc1-n1cnc(C)c1", "75%"],
  ["COc1nc(-c2csc(Nc3c4c(nn3C(C)(C)C)CCC4)n2)ccc1-n1cnc(C)c1", "55%"],
  ["COc1nc(-c2csc(Nc3c4c(nn3C3CCC3)CCC4)n2)ccc1-n1cnc(C)c1", "37%"],
  ["CCn1nc2c(c1Nc1nc(-c3ccc(-n4cnc(C)c4)c(OC)n3)cs1)CCCC2", "71%"],
  ["CCn1nc(C(C)(C)C)cc1Nc1nc(-c2ccc(-n3cnc(C)c3)c(OC)n2)cs1", "89%"],
  ["CCn1nc2c(c1Nc1nc(-c3ccc(-n4cnc(C)c4)c(OC)n3)cs1)CCC2(C)C", "61%"],
  ["COc1nc(-c2csc(Nc3c4c(nn3C3CCC3)CCCC4)n2)ccc1-n1cnc(C)c1", "42%"],
  ["COc1nc(-c2csc(Nc3c4c(nn3C3CCOC3)CCCC4)n2)ccc1-n1cnc(C)c1 (racemic)", "42%"],
  ["COc1nc(-c2csc(Nc3c4c(nn3C(C)C)CCC4)n2)ccc1-n1cnc(C)c1", "56%"],
  ["CCn1nc(C2(C)CC2)cc1Nc1nc(-c2ccc(-n3cnc(C)c3)c(OC)n2)cs1", "73%"],
  ["CCn1nc2c(c1Nc1nc(-c3ccc(-n4cnc(C)c4)c(OC)n3)cs1)C(C)CC2(C)C (racemic)", "38%"],
  ["COCCn1nc2c(c1Nc1nc(-c3ccc(-n4cnc(C)c4)c(OC)n3)cs1)CCCC2", "45%"],
  ["CCn1nc(C(F)(F)F)cc1Nc1nc(-c2ccc(-n3cnc(C)c3)c(OC)n2)cs1", "96%"],
  ["COc1nc(-c2csc(Nc3c4c(nn3CC(F)(F)F)CCCC4)n2)ccc1-n1cnc(C)c1", "41%"],
  ["COc1nc(-c2csc(Nc3cc(C(C)(C)C)nn3CC(F)(F)F)n2)ccc1-n1cnc(C)c1", "90%"],
  ["CCn1nc2c(c1Nc1nc(-c3ccc(-n4cnc(C)c4)c(OC)n3)cs1)CCC2", "67%"],
  ["COc1nc(-c2csc(Nc3c4c(nn3CCF)CCCC4)n2)ccc1-n1cnc(C)c1", "100%"],
  ["COc1nc(-c2csc(Nc3c4c(nn3C)CCC4)n2)ccc1-n1cnc(C)c1", "71%"]
]}

====

Target: UniProt:P05177
Sequence (P05177 whole entry): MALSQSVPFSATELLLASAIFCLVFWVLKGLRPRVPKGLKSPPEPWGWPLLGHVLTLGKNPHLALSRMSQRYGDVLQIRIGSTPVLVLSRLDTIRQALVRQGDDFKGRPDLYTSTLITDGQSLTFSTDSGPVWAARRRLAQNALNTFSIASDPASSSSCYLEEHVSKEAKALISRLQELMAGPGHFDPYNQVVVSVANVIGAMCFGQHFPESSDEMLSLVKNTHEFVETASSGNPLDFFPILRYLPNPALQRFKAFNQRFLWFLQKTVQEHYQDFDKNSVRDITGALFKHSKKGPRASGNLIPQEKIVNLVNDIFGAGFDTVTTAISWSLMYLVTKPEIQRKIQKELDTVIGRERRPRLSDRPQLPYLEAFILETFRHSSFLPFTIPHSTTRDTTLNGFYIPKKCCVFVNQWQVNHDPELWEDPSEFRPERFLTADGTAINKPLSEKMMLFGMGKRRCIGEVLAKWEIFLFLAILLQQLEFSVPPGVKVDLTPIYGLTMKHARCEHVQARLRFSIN
Test: Inhibition of recombinant CYP1A2 (unknown origin) by fluorescence-based assay
This section presents compounds with their documented IC50 values.

{"columns": ["compound", "IC50"],
 "data": [
  ["COc1nc(-c2csc(Nc3c4c(nn3CCO)CCCC4)n2)ccc1-n1cnc(C)c1", "> 100 µM"],
  ["CCn1nc(C(F)(F)F)cc1Nc1nc(-c2ccc(-n3cnc(C)c3)c(OC)n2)cs1", "9.1 µM"],
  ["COc1nc(-c2csc(Nc3cc(C(C)(C)C)nn3CCF)n2)ccc1-n1cnc(C)c1", "64 µM"],
  ["COc1nc(-c2csc(Nc3c4c(nn3CCF)CCC4)n2)ccc1-n1cnc(C)c1", "> 100 µM"],
  ["CCn1nc2c(c1Nc1nc(-c3ccc(-n4cnc(C)c4)c(OC)n3)cs1)CCC2(C)C", "> 100 µM"],
  ["COc1nc(-c2csc(Nc3cc(C(C)(C)C)nn3CC(F)(F)F)n2)ccc1-n1cnc(C)c1", "18 µM"],
  ["COc1nc(-c2csc(Nc3c4c(nn3CCF)CCCC4)n2)ccc1-n1cnc(C)c1", "> 100 µM"],
  ["CCn1nc2c(c1Nc1nc(-c3ccc(-n4cnc(C)c4)c(OC)n3)cs1)CCCCC2", "> 100 µM"],
  ["COc1nc(-c2csc(Nc3c4c(nn3C)CCC4)n2)ccc1-n1cnc(C)c1", "> 100 µM"],
  ["COc1nc(-c2csc(Nc3c4c(nn3CCCO)CCCC4)n2)ccc1-n1cnc(C)c1", "> 100 µM"],
  ["COc1nc(-c2csc(Nc3c4c(nn3C3CCC3)CCCC4)n2)ccc1-n1cnc(C)c1", "> 100 µM"],
  ["COc1nc(-c2csc(Nc3c4c(nn3C(C)(C)C)CCCC4)n2)ccc1-n1cnc(C)c1", "9.1 µM"],
  ["CCn1nc(C2(C)CC2)cc1Nc1nc(-c2ccc(-n3cnc(C)c3)c(OC)n2)cs1", "> 100 µM"],
  ["COc1nc(-c2csc(Nc3c4c(nn3CC(C)(C)O)CCCC4)n2)ccc1-n1cnc(C)c1", "> 100 µM"],
  ["COc1nc(-c2csc(Nc3c4c(nn3CCO)CCC4)n2)ccc1-n1cnc(C)c1", "> 100 µM"],
  ["COc1nc(-c2csc(Nc3c4c(nn3CC(F)(F)F)CCC4)n2)ccc1-n1cnc(C)c1", "27 µM"],
  ["CCn1nc2c(c1Nc1nc(-c3ccc(-n4cnc(C)c4)c(OC)n3)cs1)CCC2", "> 100 µM"],
  ["CCn1nc2c(c1Nc1nc(-c3ccc(-n4cnc(C)c4)c(OC)n3)cs1)C(C)CC2(C)C (racemic)", "> 100 µM"],
  ["CCn1nc2c(c1Nc1nc(-c3ccc(-n4cnc(C)c4)c(OC)n3)cs1)CCCC2", "> 100 µM"],
  ["COc1nc(-c2csc(Nc3cc(C(C)(C)C)nn3C(C)C)n2)ccc1-n1cnc(C)c1", "> 100 µM"]
]}
